Test system: Aspc-1 cells
Experiment: Cell proliferation study in Aspc-1 cells (Cell Titer Glo)
Assay type: cell-based
Conditions: Homo sapiens, ASPC1, 72 hours, read-out: IC50, inhibitory effect on cellular proliferation
pIC50: −log10 of the molar value.
measurement kind: pIC50

Lookup result for `CCc1c(F)ccc2cc(O)cc(-c3ncc4c(N5CC6CCC(C5)N6)nc(OC5CCN(CCCCCCCCCCC(=O)N[C@H](C(=O)N6C[C@H](O)C[C@H]6C(=O)NCc6ccc(-c7scnc7C)cc6)C(C)(C)C)CC5)nc4c3F)c12` ; measured pIC50: 5.30 to 6.00

Lookup result for `C#Cc1c(F)ccc2cc(O)cc(-c3ncc4c(N5CC6CCC(C5)N6)nc(OCCCN5CCN(C(=O)CCCCC(=O)N[C@H](C(=O)N6C[C@H](O)C[C@H]6C(=O)NCc6ccc(-c7scnc7C)cc6)C(C)(C)C)CC5)nc4c3F)c12` ; measured pIC50: 6.00 to 7.00

Lookup result for C#Cc1c(F)ccc2cc(O)cc(-c3ncc4c(N5CC6CCC(C5)N6)nc(OCC5(CN6CCC(CN7CCC(c8ccc9c%10c(cccc8%10)C(=O)N9C8CCC(=O)NC8=O)CC7)CC6)CC5)nc4c3F)c12 (stereo not drawn) ; measured pIC50: > 7.00

Lookup result for C#Cc1c(F)ccc2cc(O)cc(-c3ncc4c(N5CC6CCC(C5)N6)nc(OCC5(CN6CCC7(CC6)CC(N6CCC(c8ccc9c%10c(cccc8%10)C(=O)N9C8CCC(=O)NC8=O)CC6)C7)CC5)nc4c3F)c12 (stereo not drawn) ; measured pIC50: > 7.00

Lookup result for `C#Cc1c(F)ccc2cc(O)cc(-c3ncc4c(N5CC6CCC(C5)N6)nc(OC5CCN(CCCCCCCCCCCC(=O)N[C@H](C(=O)N6C[C@H](O)C[C@H]6C(=O)NCc6ccc(-c7scnc7C)cc6)C(C)(C)C)CC5)nc4c3F)c12` ; measured pIC50: 6.00 to 7.00

Lookup result for C#Cc1c(F)ccc2cc(O)cc(-c3ncc4c(N5CC6CCC(C5)N6)nc(OC5CCCN(CCCCCCCCCCC(=O)N6CCC(c7ccc8c(C9CCC(=O)NC9=O)nn(C)c8c7)CC6)C5)nc4c3F)c12 (stereo not drawn) ; measured pIC50: 5.30 to 6.00

Lookup result for C#Cc1c(F)ccc2cc(O)cc(-c3ncc4c(N5CC6CCC(C5)N6)nc(OCC5(CN6CCC(CCN7CCC(c8ccc9c(C%10CCC(=O)NC%10=O)nn(C)c9c8)CC7)CC6)CC5)nc4c3F)c12 (stereo not drawn) ; measured pIC50: > 7.00

Lookup result for C#Cc1c(F)ccc2cc(O)cc(-c3ncc4c(N5CC6CCC(C5)N6)nc(OCC5(CN6CCN(C(=O)CN7CCC(c8ccc9c(C%10CCC(=O)NC%10=O)nn(C)c9c8)CC7)CC6)CC5)nc4c3F)c12 (stereo not drawn) ; measured pIC50: > 7.00

Lookup result for CCc1c(F)ccc2cc(O)cc(-c3ncc4c(N5CC6CCC(C5)N6)nc(OCC5(CN6CCC(C(=O)N7CCC8(CC7)CC(N7CCC(c9ccc%10c(C%11CCC(=O)NC%11=O)nn(C)c%10c9)CC7)C8)CC6)CC5)nc4c3F)c12 (stereo not drawn) ; measured pIC50: > 7.00

Lookup result for C#Cc1c(F)ccc2cc(O)cc(-c3ncc4c(N5CC6CCC(C5)N6)nc(OCC5(CN6CCC(C(=O)N7CCC8(CC7)CC(N7CCC(c9ccc%10c(C%11CCC(=O)NC%11=O)nn(C)c%10c9)CC7)C8)CC6)CC5)nc4c3F)c12 (stereo not drawn) ; measured pIC50: > 7.00

Lookup result for `C#Cc1c(F)ccc2cc(O)cc(-c3ncc4c(N5CC6CCC(C5)N6)nc(OCCN5CCN(CCCCCCCC(=O)N[C@H](C(=O)N6C[C@H](O)C[C@H]6C(=O)NCc6ccc(-c7scnc7C)cc6)C(C)(C)C)CC5)nc4c3F)c12` ; measured pIC50: 5.30 to 6.00

Lookup result for C#Cc1c(F)ccc2cc(O)cc(-c3ncc4c(N5CC6CCC(C5)N6)nc(OCC5(CN6CCC(C(=O)N7CCC(N8CCC(c9ccc%10c(C%11CCC(=O)NC%11=O)nn(C)c%10c9)CC8)CC7)CC6)CC5)nc4c3F)c12 (stereo not drawn) ; measured pIC50: > 7.00

Lookup result for C#Cc1c(F)ccc2cc(O)cc(-c3ncc4c(N5CC6CCC(C5)N6)nc(OCC5(CN6CCC(CN7CCN(c8cccc9c8C(=O)N(C8CCC(=O)NC8=O)C9=O)CC7)CC6)CC5)nc4c3F)c12 (stereo not drawn) ; measured pIC50: > 7.00

Lookup result for C#Cc1c(F)ccc2cc(O)cc(-c3ncc4c(N5CC6CCC(C5)N6)nc(OCC5(CN6CCC(CN7CCC(c8ccc9c(C%10CCC(=O)NC%10=O)nn(C)c9c8)CC7)CC6)CC5)nc4c3F)c12 (stereo not drawn) ; measured pIC50: > 7.00

Lookup result for C#Cc1c(F)ccc2cc(O)cc(-c3ncc4c(N5CC6CCC(C5)N6)nc(OCC5(CN6CCC7(CC6)CC(N6CCC(c8ccc9c(C%10CCC(=O)NC%10=O)nn(C)c9c8)CC6)C7)CC5)nc4c3F)c12 (stereo not drawn) ; measured pIC50: > 7.00
